Measured polymerase ribozyme fitness (log ratio) accompanies every entry in the list below.
B1: TPR 5TU (parent)
chain: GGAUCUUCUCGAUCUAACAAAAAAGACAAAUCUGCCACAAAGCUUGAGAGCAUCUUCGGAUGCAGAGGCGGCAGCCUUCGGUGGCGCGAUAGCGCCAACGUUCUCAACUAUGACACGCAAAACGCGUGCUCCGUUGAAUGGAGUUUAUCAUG

# Variants of: B1
# experimentSummary: polymerase ribozyme fitness, log enrichment relative to wild type (log ratio); higher = more active; in vitro selection for triplet polymerase activity
Variants at the floor of the assay were thinned out.

C14G A17U A37U A52G C57U A91U U127A U134A A150U ... ≤ -4.2

QUERY: Value lookup for polymerase ribozyme fitness (log ratio); key = A21G A22U A24G A39U C87A C96A U148C
RESULT: ≤ -4.2

QUERY: Field entry: C54U A107U U111G U135A U146C
RESULT: -4

QUERY: Field entry: C87A A115C
RESULT: -4.1

QUERY: Field entry: C27U U139A
RESULT: ≤ -4.2

QUERY: Field entry: U15C C93G
RESULT: -2.27
